Target: recombinant human tryptase, beta, from lung (Homo sapiens, UniProt P20231)
Sequence (P20231 31-275): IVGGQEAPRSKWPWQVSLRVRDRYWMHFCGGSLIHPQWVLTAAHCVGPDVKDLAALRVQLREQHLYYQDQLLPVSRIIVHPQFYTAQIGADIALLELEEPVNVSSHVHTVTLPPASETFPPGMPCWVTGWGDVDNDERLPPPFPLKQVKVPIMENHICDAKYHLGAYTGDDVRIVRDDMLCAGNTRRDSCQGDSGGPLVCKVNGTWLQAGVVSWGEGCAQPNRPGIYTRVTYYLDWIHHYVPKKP
Assay: Evaluation of inhibition of tryptase activity (Boc-Gln-Ala-Arg-AMC fluorescence)
Conditions: exemplary silyl monomers; 1 nM tryptase; read-out: IC50 range
observed_property: IC50

compound=C[Si](C)(O)c1cccc2[nH]c(C(=O)N3CCC(c4cccc(CN)c4)CC3)cc12 measured_on="recombinant human tryptase, beta, from lung (Homo sapiens, UniProt P20231)" readout_value="10000 to 65000 nM"
compound=C[Si](C)(O[Si](C)(C)c1cc2c(C(=O)N3CCC(c4cccc(CN)c4)CC3)cccc2s1)c1cc2c(C(=O)N3CCC(c4cccc(CN)c4)CC3)cccc2s1 measured_on="recombinant human tryptase, beta, from lung (Homo sapiens, UniProt P20231)" readout_value="0.1 to 1000 nM"
compound=C[Si](C)(O)c1coc2ccc(C(=O)N3CCC(c4cccc(CN)c4)CC3)cc12 measured_on="recombinant human tryptase, beta, from lung (Homo sapiens, UniProt P20231)" readout_value="0.1 to 1000 nM"
compound=C[Si](C)(O[Si](C)(C)c1cccc2sc(C(=O)N3CCC(c4cccc(CN)c4)CC3)cc12)c1cccc2sc(C(=O)N3CCC(c4cccc(CN)c4)CC3)cc12 measured_on="recombinant human tryptase, beta, from lung (Homo sapiens, UniProt P20231)" readout_value="0.1 to 1000 nM"
compound=C[Si](C)(O)c1cccc2ccc(C(=O)N3CCC(c4cccc(CN)c4)CC3)cc12 measured_on="recombinant human tryptase, beta, from lung (Homo sapiens, UniProt P20231)" readout_value="0.1 to 1000 nM"
compound=C[Si](C)(O)COc1cccc(C(=O)N2CCC(c3cccc(CN)c3)CC2)c1 measured_on="recombinant human tryptase, beta, from lung (Homo sapiens, UniProt P20231)" readout_value="0.1 to 1000 nM"
compound="C[Si](C)(O)c1cccc2cc(C(=O)N3CCC(c4cc(CN)ccc4F)CC3)ccc12 [Target T120F]" measured_on="recombinant human tryptase, beta, from lung (Homo sapiens, UniProt P20231)" readout_value="0.1 to 1000 nM"
compound=Cn1cc(C(=O)N2CCC(c3cccc(CN)c3)CC2)c2ccc([Si](C)(C)O)cc21 measured_on="recombinant human tryptase, beta, from lung (Homo sapiens, UniProt P20231)" readout_value="10000 to 65000 nM"

Exercise: So what IC50 did `C[Si](C)(O)c1cccc(C(=O)N2CCC(c3cccc(CN)c3)CC2)c1` get with recombinant human tryptase, beta, from lung (Homo sapiens, UniProt P20231)?
Key: 0.1 to 1000 nM

Exercise: What about this compound? `C[Si](C)(O)c1cccc(C(=O)N2CCC3(CC2)COc2ccc(CN)cc23)c1`
Key: 0.1 to 1000 nM

Exercise: Repeat with `C[Si](C)(O)c1ccc(C(=O)N2CCC(c3cccc(CN)c3)CC2)cc1`
Key: 0.1 to 1000 nM

Exercise: Subsequent entry: `C[Si](C)(O)Cc1cccc(C(=O)N2CCC(c3cccc(CN)c3)CC2)c1`
Key: 1000 to 10000 nM

Exercise: Same again, this time with `C[Si](C)(O[Si](C)(C)c1ccc(CC(=O)N2CCC(c3cccc(CN)c3)CC2)cc1)c1ccc(CC(=O)N2CCC(c3cccc(CN)c3)CC2)cc1`
Key: 1000 to 10000 nM

Exercise: Again, but for `C[Si](C)(O)c1cccc(-c2cccc(C(=O)N3CCC(c4cccc(CN)c4)CC3)c2)c1`
Key: 10000 to 65000 nM

Exercise: Let us now turn to `CSc1cc(C(=O)N2CCC(c3cccc(CN)c3)CC2)cc([Si](C)(C)O)c1`
Key: 0.1 to 1000 nM
